test system: MCF7; assay: Cytotoxicity against human MCF7 cells; format: functional, cell-based
OUTCOME_MEASURE: IC50 (nM)
All answers are understood in nM, so give the number only.

Any idea what its IC50 is? The compound is C#CC(O)/C=C/CCCCCCCCC/C=C\CCCCCCCCC/C=C/C(O)C#C (stereo unspecified)
200

---

assay: Cytotoxicity against African green monkey Vero cells assessed as inhibition of cell growth incubated for 3 days by resazurin based fluorescence assay; assay type: toxicity; conditions: African green monkey (Chlorocebus sabaeus)
OUTCOME_MEASURE: IC50 at 3 days (nM)
All answers are understood in nM, so give the number only.

Any idea what its IC50 at 3 days is? The compound is C#CC(O)/C=C/CCCCCCCCC/C=C\CCCCCCCCC/C=C/C(O)C#C (stereo unspecified)
400

---

system: Mycobacterium tuberculosis; test: Antitubercular activity against Mycobacterium tuberculosis H37Rv assessed as inhibition of bacterial growth by alamar blue assay; format: functional
OUTCOME_MEASURE: MIC (µM)
All answers are understood in µM, so give the number only.

Any idea what its MIC is? The molecule is COc1nc2ccc(Br)cc2cc1[C@@H](c1ccccc1)[C@@](O)(CCN(C)C)c1cccc2ccccc12 [BEDAQUILINE]
0.03

Any idea what its MIC is? The molecule is CO[C@H]1/C=C/O[C@@]2(C)Oc3c(C)c(O)c4c(O)c(c(/C=N/N5CCN(C)CC5)c(O)c4c3C2=O)NC(=O)/C(C)=C\C=C\[C@H](C)[C@H](O)[C@@H](C)[C@@H](O)[C@@H](C)[C@H](OC(C)=O)[C@@H]1C [RIFAMPIN]
0.04

Any idea what its MIC is? The molecule is CC(=O)NC[C@H]1CN(c2ccc(N3CCOCC3)c(F)c2)C(=O)O1 [LINEZOLID]
1

Any idea what its MIC is? The molecule is O=[N+]([O-])c1cn2c(n1)OC[C@@H](OCc1ccc(OC(F)(F)F)cc1)C2 [PRETOMANID]
0.2

Any idea what its MIC is? The molecule is NNC(=O)c1ccncc1 [ISONIAZID]
0.2

Any idea what its MIC is? The molecule is C#CC(O)/C=C/CCCCCCCCC/C=C\CCCCCCCCC/C=C/C(O)C#C (stereo unspecified)
1.4

---

system: HeLa; test: Cytotoxicity against human HeLa cells; type: functional, cell-based
OUTCOME_MEASURE: pIC50
Scale for pIC50: -log10 of concentration given in mol/L; no unit attached.

Any idea what its pIC50 is? The compound is C#CC(O)/C=C/CCCCCCCCC/C=C\CCCCCCCCC/C=C/C(O)C#C (stereo unspecified)
6.70
